- tgt: Sigma-1 (Cavia porcellus)
- Sequence (Q60492 whole entry): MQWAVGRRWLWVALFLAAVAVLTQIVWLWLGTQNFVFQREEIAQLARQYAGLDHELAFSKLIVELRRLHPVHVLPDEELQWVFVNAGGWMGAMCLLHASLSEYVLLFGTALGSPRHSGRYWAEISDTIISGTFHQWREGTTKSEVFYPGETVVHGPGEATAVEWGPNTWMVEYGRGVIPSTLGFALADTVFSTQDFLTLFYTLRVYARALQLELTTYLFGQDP
- experiment-summary: Sigma-1 binding assay, guinea pig brain membranes, [3H]-(+)-pentazocine (Example 9)
- particulars: read-out: Ki SIGMA-1 GUINEA PIG BRAIN [3H]-(+)-PENT; Table 2 of Example 9; 120 min at 25° C.
experimental-readout: pKi
Answers are plain numbers, as −log10 of the molar value.

O=C(NC1CCN(Cc2ccccc2)CC1)c1ccccc1I [2-IBP, (N-Benzylpiperidin-4-yl)-2-iodobenzamide]    8.79

QUERY: Look at this compound and give its reported pKi. O=C(NC1CCN(Cc2ccccc2)CC1)c1cccc(I)c1 [3-IBP, (N-Benzylpiperidin-4-yl)-3-iodobenzamide]
RESULT: 8.52
